Tested on: INS-1E rat beta cells, no cytokines, CellTiter-Glo ATP, 48 h
Assay: cytokine-free beta-cell viability effect – INS-1E rat cells, ATP luminescence, cherry pick, counter-screen for beta-cell apoptosis protection project, dose response (AID 463229);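 active = compounds raising the signal whose fitted half-maximal concentration is at or below their top tested dose (cut at about 25 µM in these data); inconclusive = flat fit at 30 to 70% activity, or a poor fit; inactive = the rest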
Give your call using only these classes: 1 (yes) = active, 0 (no) = inactive

Use the examples below as a reference point.
[in] Record lookup: outcome of this test for "O=C(CSc1nc2ccccc2c(=O)n1-c1ccccc1)N1CCc2ccccc2C1" ?
[out] 1 (yes)

[in] // query: "COc1ccc(N=C2S/C(=C\c3ccc(N4CCOCC4)o3)C(=O)N2CCc2c[nH]c3ccccc23)cc1"
[out] 1 (yes)

[in] // query: C/C(=N\NC(=O)C(C)Oc1ccc([N+](=O)[O-])cc1)c1ccccn1 (configuration not stated)
[out] 1 (yes)

[in] // query: "CCCCCN=Cc1c(C)[nH]n(-c2nc3ccccc3s2)c1=O"
[out] 1 (yes)

[in] // query: "CCN(CC)c1ccc(/C=N/NC(=O)c2ccoc2C)c(O)c1"
[out] 1 (yes)

***
[in] Record lookup: outcome of this test for "Cc1ccc(-c2nc(C(Cl)Cl)c3ccccc3n2)cc1" ?
[out] 1 (yes)

[in] // query: Cc1[nH]c2c(ccc3ccccc32)c1C1C(CCN)C1(C)C (configuration not stated)
[out] 1 (yes)

[in] // query: "Cn1cc(CNCc2ccc(OC(F)(F)F)cc2)c(-c2ccc3c(c2)OCCO3)n1"
[out] 1 (yes)

[in] // query: "CC(C)(C)c1cc(C(=O)N/N=C/c2ccccc2O)n(-c2ccccc2)n1"
[out] 1 (yes)

[in] // query: "CCOC(=O)c1cnc(-n2nc(C)cc2C)nc1NC1CCCC1"
[out] 1 (yes)

[in] // query: "COc1ccc2nc3cc(Cl)ccc3c(Nc3cc(CN4CCCC4)c(O)c(CN4CCCC4)c3)c2n1"
[out] 1 (yes)

[in] // query: "COc1ccc(/C(C)=N/Nc2nc(C)cc(-c3ccccc3)n2)cc1"
[out] 1 (yes)

[in] // query: "Cc1[nH]n(-c2ccccc2)c(=O)c1/C=N/NC(=O)COc1ccccc1[N+](=O)[O-]"
[out] 1 (yes)

[in] // query: "O=C(COc1ccc(Br)cc1)N1CCN(Cc2c[nH]c3ccccc23)CC1"
[out] 1 (yes)

[in] // query: "O=C(c1cc(COc2ccc3ncccc3c2)on1)N1CCCCCC1"
[out] 1 (yes)

[in] // query: "O=C1C=C(Nc2ccccc2O)c2ccccc2C1=O"
[out] 1 (yes)

[in] // query: "O=[N+]([O-])c1cccc(-c2cn3nc(-c4ccccc4)c(-c4ccccc4)nc3n2)c1"
[out] 1 (yes)

----------
Test system: INS-1E rat beta cells, no cytokines, CellTiter-Glo ATP, 48 h
Test: cytokine-free beta-cell viability effect – INS-1E rat cells, ATP luminescence, cherry pick, counter-screen for beta-cell apoptosis protection project, dose response (AID 463229)
Provide the reported AC50 of each item.

[in] Return reported AC50; argument: "Cc1cc(N/N=C/c2cccc(Cl)c2)nc(-n2nc(C)cc2C)n1"
[out] 16.4 µM

[in] // query: "CCCCCCCCCCn1c2c(c(=N)c3c1CCC3)CCC2"
[out] < 0.195 µM

[in] // query: "COc1ccc2c(c1)[nH]c1c(N3CCN(Cc4ccc5c(c4)OCO5)CC3)ncnc12"
[out] 3.45 µM

// input: 6 molecules below; output: AC50 for each
1. O=C(/C=C/c1cccc([N+](=O)[O-])c1)c1ccc([N+](=O)[O-])o1
2. CCCCCCCC[n+]1cccc2c3ccccc3ccc21
3. CCCCNc1c(-c2ccc(SC3CCCCC3)cc2)nc2ccccn12
4. CCC(C)(C)c1ccc(OCCCC[n+]2cccc(C)c2C)c(C(C)(C)CC)c1
5. COc1cc(NC(=O)c2ccc([N+](=O)[O-])o2)ccc1NC(=O)c1cccs1
6. COC(=O)[C@H](CC(C)C)N(Cc1ccccc1)S(=O)(=O)N(Cc1ccc(OC)cc1)[C@@H](CC(C)C)C(=O)OC

[out]
3.95 µM
0.273 µM
5.31 µM
0.804 µM
15.2 µM
5.08 µM

Values from PubChem BioAssay AID463229
